- assayed_target: recombinant rat PIM-3 (Rattus norvegicus, UniProt O70444)
- method_summary: PIM-3 Assay (as Example A)
- stated_conditions: averaged IC50; 30 μM ATP, 3.75 μM PIM2tide, 0.5 nM PIM-3
Where a name gives a salt, the structure may show the parent alone.
endpoint_label: pIC50
Please note pIC50 is a logarithmic value: minus log10 of concentration in mol/L. Answer with that number alone.

Worked examples follow.
[[record]]
molecule = "CCOc1cc2nc(-c3nnc4ccc([C@@H](N5CC[C@@H](CN)C5)C(F)(F)F)cn34)ccc2cc1F [Example 279, hydrochloride]"
assayed_target = "recombinant rat PIM-3 (Rattus norvegicus, UniProt O70444)"
measured_result = 8.51

[[record]]
molecule = "Cc1c(-c2cnn(C)c2)ccc2ccc(-c3nnc4ccc([C@@H](N5CC[C@H](N)C5)C(F)(F)F)cn34)nc12 [Example 191, dihydrochloride]"
assayed_target = "recombinant rat PIM-3 (Rattus norvegicus, UniProt O70444)"
measured_result = 9.70

[[record]]
molecule = "Cc1cnn(-c2ccc3ccc(-c4nnc5ccc([C@@H](N6CC[C@H](N)C6)C(F)(F)F)cn45)nc3c2C)c1 [Example 190, dihydrochloride]"
assayed_target = "recombinant rat PIM-3 (Rattus norvegicus, UniProt O70444)"
measured_result = 9.00

[[record]]
molecule = "CCC1(N)CCN([C@H](c2ccc3nnc(-c4ccc5cccc(OC)c5n4)n3c2)C(F)(F)F)C1 (single isomer, unassigned; diastereomer 2) [Example 252, dihydrochloride]"
assayed_target = "recombinant rat PIM-3 (Rattus norvegicus, UniProt O70444)"
measured_result = 7.62

[[record]]
molecule = "CC1(COc2cccc3ccc(-c4nnc5ccc([C@@H](N6CC[C@H](N)C6)C(F)(F)F)cn45)nc23)COC1 [Example 192]"
assayed_target = "recombinant rat PIM-3 (Rattus norvegicus, UniProt O70444)"
measured_result = 9.30


CO[C@H](C)COc1ccc2ccc(-c3nnc4ccc([C@@H](N5CC[C@H](N)C5)C(F)(F)F)cn34)nc2c1 [Example 277, dihydrochloride] tested on recombinant rat PIM-3 (Rattus norvegicus, UniProt O70444) gave pIC50: 9.15

CN(C)C(=O)Cc1cccc2ccc(-c3nnc4ccc([C@@H](N5CC[C@H](N)C5)C(F)(F)F)cn34)nc12 [Example 234, dihydrochloride] tested on recombinant rat PIM-3 (Rattus norvegicus, UniProt O70444) gave pIC50: 7.48

CCOc1cc2nc(-c3nnc4ccc([C@@H](N5CC[C@@H](N)C5)C(F)(F)F)cn34)ccc2cc1F [Example 282, hydrochloride] tested on recombinant rat PIM-3 (Rattus norvegicus, UniProt O70444) gave pIC50: 9.10

COCCc1cccc2ccc(-c3nnc4ccc([C@@H](N5CC[C@H](N)C5)C(F)(F)F)cn34)nc12 [Example 111, dihydrochloride] tested on recombinant rat PIM-3 (Rattus norvegicus, UniProt O70444) gave pIC50: 9.00

Source listed as patent US8889704B2.
